Reported IC50 values for a set of compounds
Target: recombinant human MAO-A (monoamine oxidase-A) (Homo sapiens, UniProt P21397)
Construct: purchased Sigma-Aldrich
Sequence (P21397 whole entry): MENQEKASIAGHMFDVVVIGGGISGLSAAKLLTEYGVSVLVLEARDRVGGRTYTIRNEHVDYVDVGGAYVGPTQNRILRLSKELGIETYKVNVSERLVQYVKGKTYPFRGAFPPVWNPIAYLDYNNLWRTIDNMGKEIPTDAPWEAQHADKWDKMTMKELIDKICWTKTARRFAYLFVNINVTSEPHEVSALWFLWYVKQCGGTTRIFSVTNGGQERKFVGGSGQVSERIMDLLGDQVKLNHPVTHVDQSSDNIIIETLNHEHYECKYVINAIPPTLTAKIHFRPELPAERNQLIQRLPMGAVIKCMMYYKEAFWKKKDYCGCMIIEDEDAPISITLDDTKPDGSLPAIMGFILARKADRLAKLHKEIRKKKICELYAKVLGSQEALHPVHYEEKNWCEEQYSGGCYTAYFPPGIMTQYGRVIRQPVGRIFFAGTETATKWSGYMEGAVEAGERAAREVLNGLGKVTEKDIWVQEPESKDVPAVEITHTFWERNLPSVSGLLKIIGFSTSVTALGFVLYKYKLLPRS
Experiment: Activity on recombinant human MAO-A, Amplex Red method, 0.5 mM tyramine substrate
Assay type: biochemical
Conditions: 0.5 mM tyramine, read-out: Inhibitory Activity (IC50, nM) MAO-A
Counter-ions that a name gives are not always drawn.

These solved cases illustrate the format of a correct answer.
# IC50 (compound: Cc1cc(-c2ccc(-c3nc[nH]n3)cc2)ncc1-n1cnn(C/C(=C/F)CN)c1=O [Example 121] ) is > 100000 nM

# IC50 (compound: CC(=O)Nc1ccc(-c2cccc(-n3cnn(C/C(=C\F)CN)c3=O)c2)cc1 [Example 56, hydrochloride] ) is 5100 nM

# IC50 (compound: COc1ccc(-c2cccc(-n3cnn(C/C(=C/F)CN)c3=O)c2)cn1 [Example 83, hydrochloride] ) is > 100000 nM

# IC50 (compound: CC(=O)Nc1cc(-c2cnc(-n3cnn(C/C(=C/F)CN)c3=O)c(C)c2)ccn1 [Example 147, hydrochloride] ) is > 10000 nM

# IC50 (compound: NC/C(=C\F)Cn1ncn(-c2cccc(Br)c2)c1=O [Example 4, hydrochloride] ) is > 100000 nM

# IC50 (compound: CS(=O)(=O)c1ccc(-c2ccc(-n3cnn(C/C(=C\F)CN)c3=O)nc2)cc1 [Example 129, hydrochloride] ) is > 100000 nM

Continuing:
# IC50 (compound: NC/C(=C\F)Cn1ncn(-c2cccc(-c3ccc(Cl)nc3)c2)c1=O [Example 85, hydrochloride] ) is > 100000 nM

# IC50 (compound: NC/C(=C\F)Cn1ncn(-c2ccc(F)cc2)c1=O [Example 6, hydrochloride] ) is > 100000 nM

# IC50 (compound: Cc1cc(-c2ccc3cn[nH]c3c2)ncc1-n1cnn(C/C(=C/F)CN)c1=O [Example 126] ) is > 100000 nM
